tested on: [Candida] auris; test: Antifungal activity against Candida auris measured after 24 to 72 hrs; assay type: functional; details: Candidozyma auris
Measured MIC80, listed per entry for reference.
endpoint-name: MIC80 (µg/mL)

# chemical-string, operator, recorded-value
data = [
    ("O=C(N/N=C/c1cc(Br)ccc1O)c1ccc(Br)cc1Br", ">", 16),
    ("O=C(N/N=C/c1ccc(Br)cc1O)c1ccc(Br)cc1Br", ">", 16),
    ("O=C(N/N=C/c1cc(Br)cc(Br)c1O)c1ccc(Br)c(Br)c1", "=", 16),
    ("O=C(N/N=C/c1ccc(Br)cc1O)c1cc(Br)cc(Br)c1O", "=", 0.5),
    ("O=C(N/N=C/c1cc(Cl)cc(Cl)c1O)c1ccc(Br)c(Br)c1", "=", 0.5),
]
